test system: Enterococcus sp.; assay: in vitro antibacterial evaluation, MIC by broth dilution; format: cell-based; details: strain GC 6189; broth dilution, 18 hours at 35° C.

| compound | system.name | readout.qualifier | MIC Enterococcus faecalis (GC 6189) / µg/mL |
| --- | --- | --- | --- |
| CC(c1ccccc1)C1NC(=O)CNC(=O)C(CO)NC(=O)C(C(O)C2CNC(=N)N2C2OC(CO)C(O)C(O)C2O)NC(=O)C(C(O)C2CNC(=N)N2)NC(=O)C(Cc2ccc(OC3OC(CO)C(OC4OC5COC(c6ccc(C(C)(C)C)cc6)OC5C(O)C4O)C(O)C3O)cc2)NC1=O (stereo not shown) | Enterococcus sp. | = | 0.5 |
| CC(c1ccccc1)C1NC(=O)CNC(=O)C(CO)NC(=O)C(C(O)C2CNC(=N)N2C2OC(CO)C(O)C(O)C2O)NC(=O)C(C(O)C2CNC(=N)N2)NC(=O)C(Cc2ccc(OC3OC(CO)C(OC4OC5COC(c6ccc(S(C)(=O)=O)cc6)OC5C(O)C4O)C(O)C3O)cc2)NC1=O (stereo not shown) | Enterococcus sp. | > | 64 |
| COc1cccc(C2OC3C(OC4C(CO)OC(Oc5ccc(CC6NC(=O)C(C(C)c7ccccc7)NC(=O)CNC(=O)C(CO)NC(=O)C(C(O)C7CNC(=N)N7C7OC(CO)C(O)C(O)C7O)NC(=O)C(C(O)C7CNC(=N)N7)NC6=O)cc5)C(O)C4O)OC(CO)C(O)C3O2)c1 (single isomer, unassigned) [Example 137a] | Enterococcus sp. | > | 64 |
| Cc1ccc(Oc2cccc(-c3nc4cc(CC5NC(=O)C(C(C)c6ccccc6)NC(=O)CNC(=O)C(CO)NC(=O)C(C(O)C6CNC(=N)N6C6OC(CO)C(O)C(O)C6O)NC(=O)C(C(O)C6CNC(=N)N6)NC5=O)ccc4o3)c2)cc1 (stereo not shown) | Enterococcus sp. | = | 8 |

Origin of the recorded values: patent US6914045B2
